Catalogue of kon values
- Test system: T1, dog serum albumin (dog, UniProt P49822 25-608)
- T1 construct: Bought protein, immobilized on a CM5 chip by amine coupling; also called Dog SA
- Experiment description: SPR (Biacore 8K), albumin immobilized on CM5 chip, 25 C, 1:1 kinetic fit
Unit M⁻¹ s⁻¹ implied. Number only.

Consider the following illustrative entries.
Binder	Unit tag	kon
RLN Analog 1 (other) EVQLLESGGGLVQPGGSLRLSCAASGRYIDETAVAWFRQAPGKEREFVAGIGGGVDITYYADSVKGRFTISRDNSKNTLYLQMNSLRPEDTAVYYCAARPGRPLITSKVADLYPYWGQGTLVTVSSGGGGQGGGGQGGGGQGGGGQGGGGQQLYSALANKCCHVGCTKRSLARFCGGGSGGSGGGSWMEEVIKLCGRELVRAQIAICGMSTWS	M⁻¹ s⁻¹	1.3e+06
RLN Analog 6 (other, Single-chain fusion: RLN2 B chain (desB1) - L2 - RLN2 A chain - PGPQ-repeat L1 - VHH (C-terminal)) SWMEEVIKLCGRELVRAQIAICGMSTWSGGGSGGSGGGQLYSALANKCCHVGCTKRSLARFCPGPQPGPQPGPQPGPQPGPQPGPQPGPQPGPQEVQLLESGGGLVQPGGSLRLSCAASGRYIDETAVAWFRQAPGKEREFVAGIGGGVDITYYADSVKGRFTISRDNSKNTLYLQMNSLRPEDTAVYYCAARPGRPLITSKVADLYPYWGQGTLVTVSSPP	M⁻¹ s⁻¹	480000
RLN Analog 3 (other, Single-chain fusion: VHH - (G4Q)5 L1 - RLN2 B chain (desB1) - L2 - RLN2 A chain) EVQLLESGGGLVQPGGSLRLSCAASGRYIDETAVAWFRQAPGKEREFVAGIGGGVDITYYADSVKGRFTISRDNSKNTLYLQMNSLRPEDTAVYYCAARPGRPLITSKVADLYPYWGQGTLVTVSSGGGGQGGGGQGGGGQGGGGQGGGGQSWMEEVIKLCGRELVRAQIAICGMSTWSGGGSGGSGGGQLYSALANKCCHVGCTKRSLARFC	M⁻¹ s⁻¹	2e+06
RLN Analog 2 (other, Single-chain fusion: VHH - (PGPA)8 L1 - RLN2 A chain - L2 - RLN2 B chain (desB1)) EVQLLESGGGLVQPGGSLRLSCAASGRYIDETAVAWFRQAPGKEREFVAGIGGGVDITYYADSVKGRFTISRDNSKNTLYLQMNSLRPEDTAVYYCAARPGRPLITSKVADLYPYWGQGTLVTVSSPGPAPGPAPGPAPGPAPGPAPGPAPGPAPGPAQLYSALANKCCHVGCTKRSLARFCGGGSGGSGGGSWMEEVIKLCGRELVRAQIAICGMSTWS	M⁻¹ s⁻¹	1e+06
RLN Analog 14 (other, Single-chain fusion: VHH - (PGPQ)8 L1 - RLN2 A chain (desA1-4) - L2 - RLN2 B chain (desB1)) EVQLLESGGGLVQPGGSLRLSCAASGRYIDETAVAWFRQAPGKGREFVAGIGGGVDITYYADSVKGRFTISRDNSKNTLYLQMNSLRPEDTAVYYCAARPGRPLITSKVADLYPYWGQGTLVTVSSPGPQPGPQPGPQPGPQPGPQPGPQPGPQPGPQALANKCCHVGCTKRSLARFCGGGSGGSGGGSWMEEVIKLCGRELVRAQIAICGMSTWS	M⁻¹ s⁻¹	1.5e+06

### Prompt Specify reported kon for the binder shown: RLN Analog 7 (other, Single-chain fusion: VHH - (G4Q)5 L1 - RLN2 B chain (desB1) - L2 - RLN2 A chain) EVQLLESGGGLVQPGGSLRLSCAASGRYIDETAVAWFRQAPGKGREFVAGIGGGVDITYYADSVKGRFTISRDNSKNTLYLQMNSLRPEDTAVYYCAARPGRPLITSKVADLYPYWGQGTLVTVSSGGGGQGGGGQGGGGQGGGGQGGGGQSWMEEVIKLCGRELVRAQIAICGMSTWSGGGSGGSGGGQLYSALANKCCHVGCTKRSLARFC
### Response 2.2e+06
